System: 454973-116-R2-J3-PDC complex spheroid viability;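 note: spheroids exposed to drugs for seven days before measurement; percent viability relative to DMSO vehicle control wells taken as 100%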
Experiment: Anticancer human tumor 454973-116-R2-J3-PDC patient-derived pancreatic carcinoma cell line growth inhibition [POLQ]
Conditions: second compound 0.1 µM; first compound 3.16 µM; stronger effect = lower value
Readout kind: viability, T/C (%)
Give bare numbers, in %.

Compound	Readout kind	Reported value
O=c1[nH]cc(F)c(=O)[nH]1 + Nc1ccc(C#CCN(C(=O)Cc2ncc(C(F)(F)F)cc2C(F)(F)F)c2ccc(F)cc2)nn1	viability, T/C	27.2

// for each compound below, give its viability, T/C
1. C=CC(=O)N1CCN(c2nc(=O)n(-c3c(C)ccnc3C(C)C)c3nc(-c4c(O)cccc4F)c(F)cc23)C(C)C1 (stereo unspecified) + COC1C(OC(N)=O)C(O)C(Oc2ccc3c(O)c(NC(=O)c4ccc(O)c(CC=C(C)C)c4)c(=O)oc3c2C)OC1(C)C
2. O=C(c1cc(Cc2n[nH]c(=O)c3ccccc23)ccc1F)N1CCN(C(=O)C2CC2)CC1 + Nc1ccc(C#CCN(C(=O)Cc2ncc(C(F)(F)F)cc2C(F)(F)F)c2ccc(F)cc2)nn1
3. COc1cc(C2c3cc4c(cc3C(OC3OC5COC(C)OC5C(O)C3O)C3COC(=O)C23)OCO4)cc(OC)c1O (stereo unspecified) + Nc1ccc(C#CCN(C(=O)Cc2ncc(C(F)(F)F)cc2C(F)(F)F)c2ccc(F)cc2)nn1
4. COc1cccc2c1C(=O)c1c(O)c3c(c(O)c1C2=O)CC(O)(C(=O)CO)CC3OC1CC(N)C(O)C(C)O1 (stereo unspecified) + Nc1ccc(C#CCN(C(=O)Cc2ncc(C(F)(F)F)cc2C(F)(F)F)c2ccc(F)cc2)nn1
5. CC(C)n1c(=O)n(C)c2cnc3cc(F)c(-c4ccc(OCCCN5CCCCC5)nc4)cc3c21 + Nc1ccc(C#CCN(C(=O)Cc2ncc(C(F)(F)F)cc2C(F)(F)F)c2ccc(F)cc2)nn1
6. CC(C)n1c(=O)n(C)c2cnc3cc(F)c(-c4ccc(OCCCN5CCCCC5)nc4)cc3c21 + Cc1cccc(N(C)C(=O)C2C(O)CCN2c2nc(C)cc(C(F)(F)F)c2C#N)c1
7. O=c1[nH]cc(F)c(=O)[nH]1 + Cc1cccc(N(C)C(=O)C2C(O)CCN2c2nc(C)cc(C(F)(F)F)c2C#N)c1

result:
1: 111; 2: 83.5; 3: 12.3; 4: 1.06; 5: 99.6; 6: 107; 7: 41.1

I have 3 compounds here; please give me viability, T/C for each one.
1. CCc1cc2c(N3CCc4c(cc(Cn5ccnc5)cc4-c4cn(C)nc4C(F)(F)F)C3=O)ccnc2c(OC)n1 + Nc1ccc(C#CCN(C(=O)Cc2ncc(C(F)(F)F)cc2C(F)(F)F)c2ccc(F)cc2)nn1
2. CNCc1ccc(-c2[nH]c3cc(F)cc4c3c2CCNC4=O)cc1 + Nc1ccc(C#CCN(C(=O)Cc2ncc(C(F)(F)F)cc2C(F)(F)F)c2ccc(F)cc2)nn1
3. C=CC(=O)N1CCN(c2nc(=O)n(-c3c(C)ccnc3C(C)C)c3nc(-c4c(O)cccc4F)c(F)cc23)C(C)C1 (stereo unspecified) + Nc1ccc(C#CCN(C(=O)Cc2ncc(C(F)(F)F)cc2C(F)(F)F)c2ccc(F)cc2)nn1

result:
72.3
98.2
111
